Data credit: the supplement of paper PMC8728848

Measured On: Fuc(a1-2)Gal(b1-4)GlcNAc(b1-3)Gal(b1-4)GlcNAc
Assay Method Text: glycan array binding signal (z-score within array); higher = stronger binding
Setup Conditions: glycan notation: IUPAC condensed, linker removed
The full list was thinned out, with the strongest signals kept by preference.
Lab note: compare glycan array binding signal (z-score) against -0.4. Equal or greater, write Fulfilled. Smaller, write Not fulfilled.

# Binder, Cat
measured = [
    ("FBG3 (Homo sapiens), Q9H4M3 (protein) MAVGNINELPENILLELFTHVPARQLLLNCRLVCSLWRDLIDLVTLWKRKCLREGFITEDWDQPVADWKIFYFLRSLHRNLLHNPCAEEGFEFWSLDVNGGDEWKVEDLSRDQRKEFPNDQVKKYFVTSYYTCLKSQVVDLKAEGYWEELMDTTRPDIEVKDWFAARPDCGSKYQLCVQLLSSAHAPLGTFQPDPATIQQKSDAKWREVSHTFSNYPPGVRYIWFQHGGVDTHYWAGWYGPRVTNSSITIGPPLP", "Not fulfilled"),
]

Let's switch to this binder now.
Is reported glycan array binding signal (z-score) greater than or equal to -0.4 here: Mannose Binding Protein (Lactobacillus plantarum) (protein) AERSEAALTHVDKDNFLKYFSLNGSATYDAKTGIVTITPNQNNQVGNFSLTSKIDMNKSFTLTGQVNLGSNPNGADGIGFAFHSGNTTDVGNAGGNLGIGGLQDAIGFKLDTWFNSYQAPSSDKNGSEISSTNSNGFGWNGDSANAPYGTFVKTSNQEISTANGSKVQRWWAQDTGESQALSKADIDGNFHDFVVNYDGATRTLTVSYTQASGKVLTWKTTVASSYQAMAMVVSASTGAAKNLQQFKLTSFDFQEAATVNVKYVDTTGHQLAQG
Fulfilled
